test system: CD4^+ depleted PBMCs from YF-17DD vaccinees; type: cell-based, human
No. of responders (CD4-depleted PBMCs) for assorted compounds
Metric Name: No. of responders (CD4-depleted PBMCs)

1. CC(C)[C@H](NC(=O)[C@H](CCCNC(=N)N)NC(=O)[C@H](CCC(N)=O)NC(=O)[C@H](CCC(N)=O)NC(=O)CNC(=O)[C@H](Cc1ccccc1)NC(=O)[C@@H]1CCCN1C(=O)[C@@H](NC(=O)[C@@H](NC(=O)[C@H](CC(=O)O)NC(=O)[C@@H](N)[C@@H](C)O)[C@@H](C)O)[C@@H](C)O)C(=O)N[C@@H](Cc1ccccc1)C(=O)N[C@@H](CCCCN)C(=O)N[C@@H](CCC(=O)O)C(=O)N[C@@H](CCCCN)C(=O)O [NS5_345–359] | 3
2. CC[C@H](C)[C@H](NC(=O)[C@@H](NC(=O)[C@H](CCC(=O)O)NC(=O)CNC(=O)[C@H](CC(N)=O)NC(=O)[C@H](CCCNC(=N)N)NC(=O)[C@H](CC(N)=O)NC(=O)[C@@H](NC(=O)[C@@H](NC(=O)[C@@H]1CCCN1C(=O)[C@H](CO)NC(=O)CNC(=O)[C@H](CO)NC(=O)[C@@H](NC(=O)CN)[C@@H](C)O)[C@@H](C)CC)C(C)C)C(C)C)C(=O)O [NS3_137–151] | 0
3. CC[C@H](C)[C@H](NC(=O)[C@H](CC(C)C)NC(=O)[C@@H](NC(=O)[C@H](CCC(=O)O)NC(=O)[C@@H](N)CC(=O)O)C(C)C)C(=O)N[C@@H](CCC(=O)O)C(=O)N[C@H](C(=O)N[C@@H](CC(N)=O)C(=O)N1CCC[C@H]1C(=O)N1CCC[C@H]1C(=O)N[C@@H](Cc1ccccc1)C(=O)NCC(=O)N[C@@H](CC(=O)O)C(=O)N[C@@H](CO)C(=O)N[C@@H](Cc1ccc(O)cc1)C(=O)O)C(C)C [Env361–375] | 2
4. CC[C@H](C)[C@H](NC(=O)CNC(=O)[C@H](CCCCN)NC(=O)[C@@H](N)CC(N)=O)C(=O)N[C@@H](CC(C)C)C(=O)N[C@H](C(=O)N[C@H](C(=O)N[C@H](C(=O)N[C@@H](CC(N)=O)C(=O)N1CCC[C@H]1C(=O)N[C@H](C(=O)N[C@@H](C)C(=O)N[C@@H](CO)C(=O)N[C@H](C(=O)N[C@@H](CC(N)=O)C(=O)O)[C@@H](C)O)[C@@H](C)CC)C(C)C)[C@@H](C)O)C(C)C [Env345–359] | 3

====

// ELISPOT Max lookup, one value per entry
test system: PBMCs from YF-17DD vaccinees; type: cell-based, human
Metric Name: ELISPOT Max (SFC/10^6 PBMC)

1) CSCC[C@H](NC(=O)[C@H](C)NC(=O)[C@H](CCSC)NC(=O)[C@@H](N)CCCNC(=N)N)C(=O)N[C@H](C(=O)N[C@@H](CC(=O)O)C(=O)N[C@H](C(=O)N[C@H](C(=O)N1CCC[C@H]1C(=O)N[C@@H](Cc1ccccc1)C(=O)NCC(=O)N[C@@H](CCC(N)=O)C(=O)N[C@@H](CCC(N)=O)C(=O)N[C@@H](CCCNC(=N)N)C(=O)N[C@H](C(=O)O)C(C)C)[C@@H](C)O)[C@@H](C)O)[C@@H](C)O | 267
2) CC(C)[C@H](NC(=O)[C@H](CCCNC(=N)N)NC(=O)[C@H](CCC(N)=O)NC(=O)[C@H](CCC(N)=O)NC(=O)CNC(=O)[C@H](Cc1ccccc1)NC(=O)[C@@H]1CCCN1C(=O)[C@@H](NC(=O)[C@@H](NC(=O)[C@H](CC(=O)O)NC(=O)[C@@H](N)[C@@H](C)O)[C@@H](C)O)[C@@H](C)O)C(=O)N[C@@H](Cc1ccccc1)C(=O)N[C@@H](CCCCN)C(=O)N[C@@H](CCC(=O)O)C(=O)N[C@@H](CCCCN)C(=O)O | 914
3) CC[C@H](C)[C@H](NC(=O)[C@H](CC(C)C)NC(=O)[C@@H](NC(=O)[C@H](CCC(=O)O)NC(=O)[C@@H](N)CC(=O)O)C(C)C)C(=O)N[C@@H](CCC(=O)O)C(=O)N[C@H](C(=O)N[C@@H](CC(N)=O)C(=O)N1CCC[C@H]1C(=O)N1CCC[C@H]1C(=O)N[C@@H](Cc1ccccc1)C(=O)NCC(=O)N[C@@H](CC(=O)O)C(=O)N[C@@H](CO)C(=O)N[C@@H](Cc1ccc(O)cc1)C(=O)O)C(C)C | 203
